Tested on: SNB-75 CNS
Experiment: NCI tumour cell line growth inhibition, 48 h
measurement.kind: TGI (µM)
# number only, unit µM dropped from output

Problem: # input compound: CC(C)(C)c1cc(C(C)(C)C)c2sc(=O)oc2c1O ; wanted: its TGI
Solution: 27.1

Problem: # input compound: O=[N+]([O-])/C(=C/C=C/c1ccccc1)c1ccccc1 ; wanted: its TGI
Solution: 7.27

Problem: # input compound: Cc1ncc([N+](=O)[O-])n1CCOc1ccc(C(=O)/C=C/c2ccc(C(F)(F)F)cc2)cc1 ; wanted: its TGI
Solution: 12.8

Problem: # input compound: FC(F)(Sc1ncccn1)c1nc2ccccc2o1 ; wanted: its TGI
Solution: 81.2
